# Tested on: ATP;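 note: ATP exposure 15 min at 22 °C before imaging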
# Assay details: switch fluorescence ratio, 500 uM ATP over buffer (Cy3 cluster intensity, sum of 5 cycles each) (fold (ratio)); higher = stronger signal-on switching upon ATP binding; sequences stand for … in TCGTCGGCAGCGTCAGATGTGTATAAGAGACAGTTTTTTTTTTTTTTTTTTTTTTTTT…TC
# Condition summary: aptamer strand: ATP DNA aptamer (quencher-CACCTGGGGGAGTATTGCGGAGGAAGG + anchor), 100 nM annealed; ATP concentration: 500 uM
Entries and their switch fluorescence ratio
Measurement kind: switch fluorescence ratio

[[record]]
primary_sequence = "GATCAACTGT"
measurement_kind = "switch fluorescence ratio"
observed_value = 1

[[record]]
primary_sequence = "CAGGTCTTTC"
measurement_kind = "switch fluorescence ratio"
observed_value = 1.02

[[record]]
primary_sequence = "TAAGCTGGCT"
measurement_kind = "switch fluorescence ratio"
observed_value = 1.02

[[record]]
primary_sequence = "TGAAGTTCGG"
measurement_kind = "switch fluorescence ratio"
observed_value = 1.06

[[record]]
primary_sequence = "TCGTAGCTAA"
measurement_kind = "switch fluorescence ratio"
observed_value = 4.37

[[record]]
primary_sequence = "GAGATCGCC"
measurement_kind = "switch fluorescence ratio"
observed_value = 0.982

[[record]]
primary_sequence = "TTTTACAATT"
measurement_kind = "switch fluorescence ratio"
observed_value = 0.988

[[record]]
primary_sequence = "TTCGGGTTTT"
measurement_kind = "switch fluorescence ratio"
observed_value = 1

[[record]]
primary_sequence = "CATTTAAGTC"
measurement_kind = "switch fluorescence ratio"
observed_value = 0.995

[[record]]
primary_sequence = "TATGACGACG"
measurement_kind = "switch fluorescence ratio"
observed_value = 1.04

[[record]]
primary_sequence = "GCTGTAAAAA"
measurement_kind = "switch fluorescence ratio"
observed_value = 1.08

[[record]]
primary_sequence = "ATTTGACGGG"
measurement_kind = "switch fluorescence ratio"
observed_value = 1.03

[[record]]
primary_sequence = "AGGGAGTATG"
measurement_kind = "switch fluorescence ratio"
observed_value = 1.01

[[record]]
primary_sequence = "CTCGTGTTCG"
measurement_kind = "switch fluorescence ratio"
observed_value = 0.984

[[record]]
primary_sequence = "GGATGTAAGA"
measurement_kind = "switch fluorescence ratio"
observed_value = 1.1

[[record]]
primary_sequence = "CATTTAGTAT"
measurement_kind = "switch fluorescence ratio"
observed_value = 1.01

[[record]]
primary_sequence = "CACCAATAGC"
measurement_kind = "switch fluorescence ratio"
observed_value = 1.31

[[record]]
primary_sequence = "TGGGTGGGAA"
measurement_kind = "switch fluorescence ratio"
observed_value = 1.02

[[record]]
primary_sequence = "TGTCATTGGA"
measurement_kind = "switch fluorescence ratio"
observed_value = 0.989

[[record]]
primary_sequence = "GGGGGGTCGC"
measurement_kind = "switch fluorescence ratio"
observed_value = 0.99

[[record]]
primary_sequence = "TTACGGAGGC"
measurement_kind = "switch fluorescence ratio"
observed_value = 1.06

[[record]]
primary_sequence = "TCTGTGTTT"
measurement_kind = "switch fluorescence ratio"
observed_value = 0.935

[[record]]
primary_sequence = "CCAGGAGTGT"
measurement_kind = "switch fluorescence ratio"
observed_value = 1.08

[[record]]
primary_sequence = "GGATAGAGAA"
measurement_kind = "switch fluorescence ratio"
observed_value = 0.979

[[record]]
primary_sequence = "AAGGGAACGG"
measurement_kind = "switch fluorescence ratio"
observed_value = 0.971

[[record]]
primary_sequence = "ACGCCGGCGA"
measurement_kind = "switch fluorescence ratio"
observed_value = 0.973

[[record]]
primary_sequence = "AGGATAAGCT"
measurement_kind = "switch fluorescence ratio"
observed_value = 1.1

[[record]]
primary_sequence = "TGGAGCCCCG"
measurement_kind = "switch fluorescence ratio"
observed_value = 0.999

[[record]]
primary_sequence = "TTTTAAAGGA"
measurement_kind = "switch fluorescence ratio"
observed_value = 1

[[record]]
primary_sequence = "CTGTGGGGAT"
measurement_kind = "switch fluorescence ratio"
observed_value = 0.961

[[record]]
primary_sequence = "AGAGTGGGGG"
measurement_kind = "switch fluorescence ratio"
observed_value = 0.971

[[record]]
primary_sequence = "GGTTTTAAAT"
measurement_kind = "switch fluorescence ratio"
observed_value = 0.982

[[record]]
primary_sequence = "TTGAGATTCG"
measurement_kind = "switch fluorescence ratio"
observed_value = 1.01

[[record]]
primary_sequence = "ATGCTCTTAT"
measurement_kind = "switch fluorescence ratio"
observed_value = 1

[[record]]
primary_sequence = "GCTCAGTTTG"
measurement_kind = "switch fluorescence ratio"
observed_value = 0.992

[[record]]
primary_sequence = "TTCTATGCAT"
measurement_kind = "switch fluorescence ratio"
observed_value = 1.14

[[record]]
primary_sequence = "GACTATTGTT"
measurement_kind = "switch fluorescence ratio"
observed_value = 1

[[record]]
primary_sequence = "TATTGAATTC"
measurement_kind = "switch fluorescence ratio"
observed_value = 1.01

[[record]]
primary_sequence = "ATCTGGGGTG"
measurement_kind = "switch fluorescence ratio"
observed_value = 1.02

[[record]]
primary_sequence = "ATTAAAGGGG"
measurement_kind = "switch fluorescence ratio"
observed_value = 1

[[record]]
primary_sequence = "TTAAGAGACA"
measurement_kind = "switch fluorescence ratio"
observed_value = 1.03

[[record]]
primary_sequence = "TTGTGCGTAG"
measurement_kind = "switch fluorescence ratio"
observed_value = 0.991

[[record]]
primary_sequence = "AAAAAAGAAA"
measurement_kind = "switch fluorescence ratio"
observed_value = 0.982

[[record]]
primary_sequence = "CTCGGCCGAG"
measurement_kind = "switch fluorescence ratio"
observed_value = 0.982

[[record]]
primary_sequence = "GACTGAGAGA"
measurement_kind = "switch fluorescence ratio"
observed_value = 1.02

[[record]]
primary_sequence = "TTTTACCGAT"
measurement_kind = "switch fluorescence ratio"
observed_value = 1.01

[[record]]
primary_sequence = "CGTAGTGGGG"
measurement_kind = "switch fluorescence ratio"
observed_value = 0.993

[[record]]
primary_sequence = "GTTTTGTTTT"
measurement_kind = "switch fluorescence ratio"
observed_value = 0.976

[[record]]
primary_sequence = "TGAAAAATGT"
measurement_kind = "switch fluorescence ratio"
observed_value = 0.984

[[record]]
primary_sequence = "CTGGATGTTA"
measurement_kind = "switch fluorescence ratio"
observed_value = 0.999

[[record]]
primary_sequence = "AAGAAATTAA"
measurement_kind = "switch fluorescence ratio"
observed_value = 1.01

[[record]]
primary_sequence = "CATGATTGAT"
measurement_kind = "switch fluorescence ratio"
observed_value = 0.976

[[record]]
primary_sequence = "TGACGACGAG"
measurement_kind = "switch fluorescence ratio"
observed_value = 0.992

[[record]]
primary_sequence = "GATAGGGAGG"
measurement_kind = "switch fluorescence ratio"
observed_value = 0.993

[[record]]
primary_sequence = "GTGTGCTTAG"
measurement_kind = "switch fluorescence ratio"
observed_value = 1.03

[[record]]
primary_sequence = "ATACCAATGA"
measurement_kind = "switch fluorescence ratio"
observed_value = 1.05

[[record]]
primary_sequence = "CATCCGGGGG"
measurement_kind = "switch fluorescence ratio"
observed_value = 1.56

[[record]]
primary_sequence = "GTGTCAACTA"
measurement_kind = "switch fluorescence ratio"
observed_value = 0.987

[[record]]
primary_sequence = "ATAAAAAATC"
measurement_kind = "switch fluorescence ratio"
observed_value = 0.986

[[record]]
primary_sequence = "AATGTTGGAG"
measurement_kind = "switch fluorescence ratio"
observed_value = 0.985

[[record]]
primary_sequence = "AGTCGTGCGG"
measurement_kind = "switch fluorescence ratio"
observed_value = 0.988

[[record]]
primary_sequence = "GGGGTAGTTC"
measurement_kind = "switch fluorescence ratio"
observed_value = 1.01

[[record]]
primary_sequence = "GAGTACTTTG"
measurement_kind = "switch fluorescence ratio"
observed_value = 0.985

[[record]]
primary_sequence = "GCAGTATAGC"
measurement_kind = "switch fluorescence ratio"
observed_value = 0.99

[[record]]
primary_sequence = "GAATCCGGTT"
measurement_kind = "switch fluorescence ratio"
observed_value = 0.989

[[record]]
primary_sequence = "GGGTTCTGTA"
measurement_kind = "switch fluorescence ratio"
observed_value = 0.985

[[record]]
primary_sequence = "GCTGCTGGGT"
measurement_kind = "switch fluorescence ratio"
observed_value = 1.01

[[record]]
primary_sequence = "CAAGGGGCGT"
measurement_kind = "switch fluorescence ratio"
observed_value = 1.01

[[record]]
primary_sequence = "TTTCAGGATG"
measurement_kind = "switch fluorescence ratio"
observed_value = 0.963

[[record]]
primary_sequence = "TTGCCAAGGT"
measurement_kind = "switch fluorescence ratio"
observed_value = 1

[[record]]
primary_sequence = "TGCTGAATCT"
measurement_kind = "switch fluorescence ratio"
observed_value = 0.996

[[record]]
primary_sequence = "GGTAGAGACT"
measurement_kind = "switch fluorescence ratio"
observed_value = 0.975

[[record]]
primary_sequence = "TTCGGAAGTT"
measurement_kind = "switch fluorescence ratio"
observed_value = 0.966

[[record]]
primary_sequence = "ACTATAGGAC"
measurement_kind = "switch fluorescence ratio"
observed_value = 1.07

[[record]]
primary_sequence = "ATAGTCATAT"
measurement_kind = "switch fluorescence ratio"
observed_value = 0.998

[[record]]
primary_sequence = "TTTACGTTGC"
measurement_kind = "switch fluorescence ratio"
observed_value = 1.34

[[record]]
primary_sequence = "GCCACAGTCG"
measurement_kind = "switch fluorescence ratio"
observed_value = 1.01

[[record]]
primary_sequence = "CTAATTGCGA"
measurement_kind = "switch fluorescence ratio"
observed_value = 1

[[record]]
primary_sequence = "TCCGTGAGTG"
measurement_kind = "switch fluorescence ratio"
observed_value = 1.07

[[record]]
primary_sequence = "CCGGTCTGGC"
measurement_kind = "switch fluorescence ratio"
observed_value = 1.01

[[record]]
primary_sequence = "CGGAATTTC"
measurement_kind = "switch fluorescence ratio"
observed_value = 1.11

[[record]]
primary_sequence = "GGCAGAGTGT"
measurement_kind = "switch fluorescence ratio"
observed_value = 1

[[record]]
primary_sequence = "CTCAATTTTA"
measurement_kind = "switch fluorescence ratio"
observed_value = 0.974

[[record]]
primary_sequence = "GTTACAAGAG"
measurement_kind = "switch fluorescence ratio"
observed_value = 0.996

[[record]]
primary_sequence = "AGTTTAAGAA"
measurement_kind = "switch fluorescence ratio"
observed_value = 0.98

[[record]]
primary_sequence = "GGTGACGGGC"
measurement_kind = "switch fluorescence ratio"
observed_value = 0.978

